# Tested on: Staph. aureus Smith
# ASSAY SUMMARY: In vivo activity (oral, iv; ED50) against Staph. aureus Smith in mice
# EXPERIMENTAL CONDITIONS: iv, read-out: ED50 Staph Smith SIV
TEST READOUT: ED50 (mg/kg)
// return numeric value only (unit: mg/kg, not printed)

Use the examples below as a reference point.
CCCN(CC(=O)Nc1cc(N(C)C)c2c(c1O)C(=O)C1=C(O)[C@]3(O)C(=O)C(C(N)=O)=C(O)[C@@H](N(C)C)[C@@H]3C[C@@H]1C2)C(=O)OCOC(=O)CC1CCCC1 [Example 40]; 0.39
CCCCN(CC(=O)Nc1cc(N(C)C)c2c(c1O)C(=O)C1=C(O)[C@]3(O)C(=O)C(C(N)=O)=C(O)[C@@H](N(C)C)C3CC1C2)C(=O)OC(C)OC(C)=O (stereo partly shown) [Example 32]; 0.56
CN(C)c1cc(NC(=O)CN(C(=O)OCOC(=O)c2ccc3ccccc3c2)C(C)(C)C)c(O)c2c1C[C@H]1C[C@H]3[C@H](N(C)C)C(O)=C(C(N)=O)C(=O)[C@@]3(O)C(O)=C1C2=O [Example 82]; 0.52
CCCN(CC(=O)Nc1cc(N(C)C)c2c(c1O)C(=O)C1=C(O)[C@]3(O)C(=O)C(C(N)=O)=C(O)[C@@H](N(C)C)[C@@H]3C[C@@H]1C2)C(=O)OCOC(=O)C(C)C [Example 10]; 0.36

Q. // lookup ED50 for CCCN(CC(=O)Nc1cc(N(C)C)c2c(c1O)C(=O)C1=C(O)[C@]3(O)C(=O)C(C(N)=O)=C(O)[C@@H](N(C)C)[C@@H]3C[C@@H]1C2)C(=O)OCOC(=O)C1CCC1 [Example 7]
A. 0.52

Q. # get_value(readout='ED50', item= CCCCN(CC(=O)Nc1cc(N(C)C)c2c(c1O)C(=O)C1=C(O)[C@]3(O)C(=O)C(C(N)=O)=C(O)[C@@H](N(C)C)[C@@H]3C[C@@H]1C2)C(=O)OCOC(=O)C1CCC1 [Example 18] )
A. 0.6

Q. Form field: reported ED50 of CCCCN(CC(=O)Nc1cc(N(C)C)c2c(c1O)C(=O)C1=C(O)[C@]3(O)C(=O)C(C(N)=O)=C(O)[C@@H](N(C)C)[C@@H]3C[C@@H]1C2)C(=O)OCOC(=O)c1ccc(-c2ccccc2)cc1 [Example 21]
A. 0.77

Q. Form field: reported ED50 of CCCCN(CC(=O)Nc1cc(N(C)C)c2c(c1O)C(=O)C1=C(O)[C@]3(O)C(=O)C(C(N)=O)=C(O)[C@@H](N(C)C)[C@@H]3C[C@@H]1C2)C(=O)OCOC(=O)c1cccs1 [Example 23]
A. 0.47

Q. Would you mind telling me what ED50 value was observed for CN(C)c1cc(NC(=O)CN(C(=O)OCOC(=O)CC2CCCC2)C(C)(C)C)c(O)c2c1C[C@H]1C[C@H]3[C@H](N(C)C)C(O)=C(C(N)=O)C(=O)[C@@]3(O)C(O)=C1C2=O [Example 54] ?
A. 1.17

Q. Reported ED50 for CC(C)CC(=O)OCOC(=O)N(CC(=O)Nc1cc(N(C)C)c2c(c1O)C(=O)C1=C(O)[C@]3(O)C(=O)C(C(N)=O)=C(O)[C@@H](N(C)C)[C@@H]3C[C@@H]1C2)C(C)(C)C [Example 53] : what is it?
A. 0.73

----------
# Tested on: S. pyogenes GC 4563
# ASSAY SUMMARY: MIC, broth microdilution
# EXPERIMENTAL CONDITIONS: Streptococcus pyogenes, GC4563, read-out: MINIMAL INHIBITORY CONCENTRATION MIC, pre-incubated in Mouse Serum
TEST READOUT: MIC (µg/mL)
Express your answer in µg/mL, writing the number without its unit.

Here's what some known entries look like.
CCCCN(CC(=O)Nc1cc(N(C)C)c2c(c1O)C(=O)C1=C(O)[C@]3(O)C(=O)C(C(N)=O)=C(O)[C@@H](N(C)C)[C@@H]3C[C@@H]1C2)C(=O)OCOC(=O)c1cc(C)cc(C)c1; 0.5
Cc1ccc(C(=O)OCOC(=O)N(CC(=O)Nc2cc(N(C)C)c3c(c2O)C(=O)C2=C(O)[C@]4(O)C(=O)C(C(N)=O)=C(O)[C@@H](N(C)C)[C@@H]4C[C@@H]2C3)C(C)(C)C)cc1; 0.12

Now consider the entry below.
Q. Would you kindly share the measured MIC for "CCCCN(CC(=O)Nc1cc(N(C)C)c2c(c1O)C(=O)C1=C(O)[C@]3(O)C(=O)C(C(N)=O)=C(O)[C@@H](N(C)C)[C@@H]3C[C@@H]1C2)C(=O)OCOC(=O)c1ccc(-c2ccccc2)cc1" ?
A. 0.25

----------
MIC reference
# Tested on: E. coli GC 2236
# ASSAY SUMMARY: MIC, broth microdilution
# EXPERIMENTAL CONDITIONS: Escherichia coli, GC2236, E. coli GC 2236; Water pre-incubation
Output spec: scalar in mg/L, unitless text.

# annotated cases, reported MIC shown
CCCCN(CC(=O)Nc1cc(N(C)C)c2c(c1O)C(=O)C1=C(O)[C@]3(O)C(=O)C(C(N)=O)=C(O)[C@@H](N(C)C)C3CC1C2)C(=O)OCOC(=O)c1ccc(OC)cc1 (stereo partly drawn); 32
CCCCN(CC(=O)Nc1cc(N(C)C)c2c(c1O)C(=O)C1=C(O)[C@]3(O)C(=O)C(C(N)=O)=C(O)[C@@H](N(C)C)[C@@H]3C[C@@H]1C2)C(=O)OCOC(=O)Cc1ccccc1; 16

Shift focus to the following entry.
Q. For the compound shown here, "CCCN(CC(=O)Nc1cc(N(C)C)c2c(c1O)C(=O)C1=C(O)[C@]3(O)C(=O)C(C(N)=O)=C(O)[C@@H](N(C)C)[C@@H]3C[C@@H]1C2)C(=O)OCOC(=O)Cc1ccccc1" , give the reported MIC.
A. 8

----------
# Tested on: E. coli GC 2236
# ASSAY SUMMARY: MIC, broth microdilution
# EXPERIMENTAL CONDITIONS: Escherichia coli, GC2236, E. coli GC 2236; Mouse Serum pre-incubation
Below is a list of entries, each paired with its recorded MIC value.
Returns: string containing the number followed by the unit.

CCCN(CC(=O)Nc1cc(N(C)C)c2c(c1O)C(=O)C1=C(O)[C@]3(O)C(=O)C(C(N)=O)=C(O)[C@@H](N(C)C)[C@@H]3C[C@@H]1C2)C(=O)OCC(C)C [Example 16]; 64 µg/mL
CCCCN(CC(=O)Nc1cc(N(C)C)c2c(c1O)C(=O)C1=C(O)[C@]3(O)C(=O)C(C(N)=O)=C(O)[C@@H](N(C)C)[C@@H]3C[C@@H]1C2)C(=O)OCOC(=O)Cc1ccccc1 [Example 12]; 1 µg/mL
CCCN(CC(=O)Nc1cc(N(C)C)c2c(c1O)C(=O)C1=C(O)[C@]3(O)C(=O)C(C(N)=O)=C(O)[C@@H](N(C)C)[C@@H]3C[C@@H]1C2)C(=O)OCOC(=O)C(C)(C)C [Example 9]; 1 µg/mL

Here is another compound to look at.
Q. So what's the measured MIC for this one? CCCN(CC(=O)Nc1cc(N(C)C)c2c(c1O)C(=O)C1=C(O)[C@]3(O)C(=O)C(C(N)=O)=C(O)[C@@H](N(C)C)[C@@H]3C[C@@H]1C2)C(=O)OCOC(=O)C1CCC1 [Example 7]
A. 0.25 µg/mL

----------
# System: E. coli GC 2236
# ASSAY SUMMARY: MIC, broth microdilution
# EXPERIMENTAL CONDITIONS: Escherichia coli, GC2236, read-out: MINIMAL INHIBITORY CONCENTRATION MIC, Human Serum
Entries and their MIC
Quick reminder: number only, in µg/mL, skip the unit.

CN(C)c1cc(NC(=O)CN(C(=O)OCOC(=O)c2ccc(F)cc2)C(C)(C)C)c(O)c2c1C[C@H]1C[C@H]3[C@H](N(C)C)C(O)=C(C(N)=O)C(=O)[C@@]3(O)C(O)=C1C2=O; 8

Q. If you can, please state the reported MIC value of "CN(C)c1cc(NC(=O)CN(C(=O)OCOC(=O)C2CCCCC2)C(C)(C)C)c(O)c2c1C[C@H]1C[C@H]3[C@H](N(C)C)C(O)=C(C(N)=O)C(=O)[C@@]3(O)C(O)=C1C2=O" .
A. 8

Q. I would be grateful if you could share the reported MIC for "CC(C)CC(=O)OCOC(=O)N(CC(=O)Nc1cc(N(C)C)c2c(c1O)C(=O)C1=C(O)[C@]3(O)C(=O)C(C(N)=O)=C(O)[C@@H](N(C)C)[C@@H]3C[C@@H]1C2)C(C)(C)C" .
A. 16

----------
# Test system: E. coli GC 2232
# ASSAY SUMMARY: MIC, broth microdilution
# EXPERIMENTAL CONDITIONS: Escherichia coli, GC2232, read-out: MINIMAL INHIBITORY CONCENTRATION MIC, pre-incubated in Mouse Serum
TEST READOUT: MIC (µg/mL)
Response body: numeric value in µg/mL, unit text excluded.

Please review the entries below; each comes with its answer.
CCC(C)(C)C(=O)OCOC(=O)N(CC(=O)Nc1cc(N(C)C)c2c(c1O)C(=O)C1=C(O)[C@]3(O)C(=O)C(C(N)=O)=C(O)[C@@H](N(C)C)[C@@H]3C[C@@H]1C2)C(C)(C)C [Example 44]; 2
CC(C)C(=O)OCOC(=O)N(CC(=O)Nc1cc(N(C)C)c2c(c1O)C(=O)C1=C(O)[C@]3(O)C(=O)C(C(N)=O)=C(O)[C@@H](N(C)C)[C@@H]3C[C@@H]1C2)C(C)(C)C [Example 45]; 1

Q. I am curious: what MIC value has been reported for Cc1ccc(C(=O)OCOC(=O)N(CC(=O)Nc2cc(N(C)C)c3c(c2O)C(=O)C2=C(O)[C@]4(O)C(=O)C(C(N)=O)=C(O)[C@@H](N(C)C)[C@@H]4C[C@@H]2C3)C(C)(C)C)cc1 [Example 47] ?
A. 1

Q. Fill in the blank: the reported MIC of CN(C)c1cc(NC(=O)CN(C(=O)OCOC(=O)C2CCCC2)C(C)(C)C)c(O)c2c1C[C@H]1C[C@H]3[C@H](N(C)C)C(O)=C(C(N)=O)C(=O)[C@@]3(O)C(O)=C1C2=O [Example 46] is ____.
A. 0.5
